# targetOfAssay: T1, Carbon-terminal polyhistidine-labeled recombinant cynomolgus monkey CD73 enzyme (cynomolgus monkey, UniProt A0A2K5V5U7 1-547)
# T1 chain: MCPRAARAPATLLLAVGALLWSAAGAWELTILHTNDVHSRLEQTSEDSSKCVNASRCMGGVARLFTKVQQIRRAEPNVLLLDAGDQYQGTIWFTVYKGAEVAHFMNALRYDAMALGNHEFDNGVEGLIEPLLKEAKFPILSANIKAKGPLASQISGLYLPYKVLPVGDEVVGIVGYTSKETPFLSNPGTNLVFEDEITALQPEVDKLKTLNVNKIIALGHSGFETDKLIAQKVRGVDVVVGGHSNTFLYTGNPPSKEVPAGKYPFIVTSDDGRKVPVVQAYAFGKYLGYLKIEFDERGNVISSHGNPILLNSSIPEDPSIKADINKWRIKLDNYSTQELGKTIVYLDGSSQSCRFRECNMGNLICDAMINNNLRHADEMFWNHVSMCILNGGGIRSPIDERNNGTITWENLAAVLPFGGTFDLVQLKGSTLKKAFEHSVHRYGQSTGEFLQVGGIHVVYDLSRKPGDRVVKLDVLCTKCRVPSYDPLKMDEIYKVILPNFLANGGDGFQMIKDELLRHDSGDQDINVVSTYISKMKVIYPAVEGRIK
# assayComment: enzyme inhibition; left table
pIC50: −log10 of the molar value.

| binder | pIC50 |
| --- | --- |
| mAb002c-VH-QG/VK-SG (antibody, V domains shown) VH: QVQLQQPGAELVKPGASVRLSCKASGYTLTSYWMHWVKKRPGQGLEWIGEINPSQGRSNYNEKFKSKATLTVDRSSSTVYMQLGSLTSEDSAVYYCARRGVSGNYFDYWGQGTTLTVSS VL: DIKMTQSPSSMYASLGERVTMTCKASQDINTYLSWFQQKPGKSPKTLIYRSNILVSGVPSRFSGSRSGQDYYLTITSLEYEDMGIYYCLQYDEFPYTFGGGTKLELK | 10.36 |
| Hu002c-2 (antibody, V domains shown) VH: QVQLVQSGAEVKKPGASVKVSCKASGYTLTSYWMHWVRQAPGQGLEWMGEINPSQGRSNYNEKFKSRVTMTRDTSTSTVYMELSSLRSEDTAVYYCARRGVSGNYFDYWGQGTLVTVSS VL: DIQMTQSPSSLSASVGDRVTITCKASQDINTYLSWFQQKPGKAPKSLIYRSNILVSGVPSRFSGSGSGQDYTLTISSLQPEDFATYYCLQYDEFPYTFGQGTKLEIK | 10.37 |
| Hu002c-8 (antibody, V domains shown) VH: QVQLVQSGAEVKKPGASVKVSCKASGYTLTSYWMHWVRQAPGQGLEWIGEINPSQGRSNYNEKFKSRVTLTVDRSTSTVYMELSSLRSEDTAVYYCARRGVSGNYFDYWGQGTLVTVSS VL: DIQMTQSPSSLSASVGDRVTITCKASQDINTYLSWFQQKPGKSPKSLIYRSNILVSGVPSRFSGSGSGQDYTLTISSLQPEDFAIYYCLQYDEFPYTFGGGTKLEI | 10.39 |
